Test system: HOP-92 NSCLC
Protocol Text: NCI tumour cell line growth inhibition, 48 h
TGI reference

Inquiry: Returns the measured TGI for the input molecule. Input: C#CCCCOc1ncccn1
Reply text: > 100 µM

Inquiry: Entry C=C1C(=O)OC2CC1CCC1(C)OC1CCC(C)=CCCC2(C)O (stereo unspecified) has what TGI?
Reply text: 5.89 µM

Inquiry: What does the record list as TGI for CC(=O)O[C@H]1C(=O)[C@@]2(C)[C@H]([C@H](OC(=O)c3ccccc3)[C@]3(O)C[C@H](OC(=O)[C@H](O)[C@@H](NC(=O)C(C)(C)C)c4ccccc4)C(C)=C1C3(C)C)[C@]1(OC(C)=O)CO[C@@H]1C[C@@H]2O ?
Reply text: > 10 µM

Inquiry: Can you look up the measured TGI of Cc1ccc(-c2nc(-c3cnccn3)n(C3OC(CO)C(O)C(O)C3O)n2)cc1 (stereo unspecified) for me?
Reply text: > 100 µM

Inquiry: Quick check: TGI of CCOC(=O)C1=CC(C)(C(=O)OCC)Nc2c(nc(OC)[nH]c2=O)N1 (stereo unspecified) ?
Reply text: > 10 µM

Inquiry: So what's the measured TGI for this one? N#C/C(=C/Sc1ccccc1)C(=O)O
Reply text: > 100 µM
